system: N. gonorrhoeae CDC-0197; test: Liquid broth MIC in Fastidious broth; conditions: Neisseria gonorrhoeae, CDC0197, read-out: Minimum Inhibitory Concentration (MIC), N. gonorrhoeae CDC-0197
quantity: MIC

[
  {
    "compound": "O=C(O)c1cccc2c1OB(O)[C@@H](NC(=O)[C@H](NC(=O)c1cccn(C(F)F)c1=O)c1ccc(P(=O)(O)O)cc1)C2 (single isomer, unassigned)",
    "measured-target": "N. gonorrhoeae CDC-0197",
    "obs-value": "1 to 2 µg/mL"
  },
  {
    "compound": "CC(=O)N1CCC[C@H]1C(=O)NC(C(=O)N[C@H]1Cc2cccc(C(=O)O)c2OB1O)c1ccc(P(=O)(O)O)cc1 (stereo partly drawn)",
    "measured-target": "N. gonorrhoeae CDC-0197",
    "obs-value": "16 to 32 µg/mL"
  }
]

As a next step, examine the compound that follows.
Data point: O=C(O)c1cccc2c1OB(O)[C@@H](NC(=O)[C@H](NC(=O)c1cnc3sccn3c1=O)c1ccc(P(=O)(O)O)cc1)C2 (single isomer, unassigned) ; MIC = 4 to 8 µg/mL
